Each item that follows carries a reported inhibition at 1 µM.
Target: Amine oxidase [flavin-containing] A (Rattus norvegicus, UniProt P21396)
Sequence (P21396 whole entry): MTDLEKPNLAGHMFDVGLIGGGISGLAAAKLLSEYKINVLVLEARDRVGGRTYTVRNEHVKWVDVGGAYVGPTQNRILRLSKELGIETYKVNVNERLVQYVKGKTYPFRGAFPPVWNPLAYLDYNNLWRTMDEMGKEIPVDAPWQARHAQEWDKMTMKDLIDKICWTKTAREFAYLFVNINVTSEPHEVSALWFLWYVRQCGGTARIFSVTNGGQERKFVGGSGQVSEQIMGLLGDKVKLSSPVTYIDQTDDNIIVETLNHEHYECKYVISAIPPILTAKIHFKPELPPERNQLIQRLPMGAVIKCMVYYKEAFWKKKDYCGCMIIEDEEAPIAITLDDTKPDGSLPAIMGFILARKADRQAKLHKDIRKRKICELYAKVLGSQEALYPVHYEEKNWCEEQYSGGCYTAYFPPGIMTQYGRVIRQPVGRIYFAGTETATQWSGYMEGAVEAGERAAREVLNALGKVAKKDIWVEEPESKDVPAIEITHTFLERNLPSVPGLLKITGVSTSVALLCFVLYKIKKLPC
Test: Inhibitory concentration against rat brain mitochondrial Monoamine oxidase A at 1 uM
property-label: inhibition at 1 µM (%)

1. O=c1c2ccccc2sc2c(C3=NCCN3)cccc12 ... 7
2. O=S1(=O)c2ccccc2Nc2cc(C3=NCCN3)ccc21 ... 23
3. O=C1c2ccccc2S(=O)(=O)c2cc(C3=NCCCN3)ccc21 ... 37
4. Cc1nc(-c2ccc3c(c2)S(=O)(=O)c2ccccc2O3)no1 ... 98
5. O=C1c2cc(C3=NCCN3)ccc2S(=O)(=O)c2cc(C3=NCCN3)ccc21 ... 46
6. O=S1(=O)c2ccccc2-c2cc(-c3nn[nH]n3)ccc21 ... 9

* * *

Biological target: Amine oxidase [flavin-containing] A (Rattus norvegicus, UniProt P21396)
Sequence (P21396 whole entry): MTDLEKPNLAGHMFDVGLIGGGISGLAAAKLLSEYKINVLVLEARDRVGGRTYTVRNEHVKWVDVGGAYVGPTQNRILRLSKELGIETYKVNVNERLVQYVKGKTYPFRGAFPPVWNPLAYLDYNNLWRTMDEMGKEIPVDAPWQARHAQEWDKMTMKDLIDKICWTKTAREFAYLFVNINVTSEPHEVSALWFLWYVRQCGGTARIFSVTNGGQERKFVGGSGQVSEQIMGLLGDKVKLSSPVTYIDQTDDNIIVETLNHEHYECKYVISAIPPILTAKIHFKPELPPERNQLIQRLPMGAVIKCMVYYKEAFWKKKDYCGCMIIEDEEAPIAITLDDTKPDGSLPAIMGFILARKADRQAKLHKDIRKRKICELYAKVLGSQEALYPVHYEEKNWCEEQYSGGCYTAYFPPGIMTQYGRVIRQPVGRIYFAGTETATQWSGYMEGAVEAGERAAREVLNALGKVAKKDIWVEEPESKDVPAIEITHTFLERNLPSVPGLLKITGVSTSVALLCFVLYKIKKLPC
Assay: Inhibitory concentration against rat brain mitochondrial monoamine oxidase A
Each item that follows carries a reported IC50.
property-label: IC50

1. Cc1ccc2c(c1)C(=O)c1ccc(C3=NCCN3)cc1S2(=O)=O ... 20 nM
2. CCc1nnc(-c2ccc3c(c2)S(=O)(=O)c2ccccc2C3=O)o1 ... 500 nM
3. CCCc1ccc2c(c1)C(=O)c1ccc(C3=NCCN3)cc1S2(=O)=O ... 40 nM
4. Cc1ccc2c(c1)C(=O)c1ccc(-c3nnc(C)o3)cc1S2(=O)=O ... 2 nM
5. O=S1(=O)c2ccccc2Oc2ccc(C3=NCCN3)cc21 ... 40 nM
6. CCCOc1ccc2c(c1)C(=O)c1ccc(-c3nnn(C)n3)cc1S2(=O)=O ... 2 nM
7. O=c1c2ccccc2sc2cc(C3=NCCN3)ccc12 ... 1000 nM
8. Cn1nnc(-c2ccc3c(c2)S(=O)(=O)c2ccccc2C3=O)n1 ... 10 nM
9. Cc1nnc(-c2ccc3c(c2)S(=O)(=O)c2ccccc2C3=O)o1 ... 2 nM
10. Cc1nc(-c2ccc3c(c2)Sc2ccccc2O3)no1 ... 200 nM
11. COc1nc(-c2ccc3c(c2)S(=O)(=O)c2ccccc2C3=O)no1 ... 80 nM

* * *

biological target: Amine oxidase [flavin-containing] B (Rattus norvegicus, UniProt P19643); assay: Inhibitory activity against rat brain mitochondrial Monoamine oxidase B at < 1 uM
Define the label as true when Inhibition is strictly less than 20% and as false in all remaining cases.

1) CC(=O)N1CCN=C1c1ccc2c(c1)S(=O)(=O)c1ccc(F)cc1C2=O ... true
2) O=c1c2ccc(-c3nnn(CCO)n3)cc2oc2ccc(OCCO)cc12 ... true
3) O=S1(=O)c2ccccc2Oc2ccc(C3=NCCN3)cc21 ... false
4) Cn1nnc(-c2ccc3c(=O)c4cc(OCCO)ccc4oc3c2)n1 ... false
5) CCOc1ccc2oc3cc(-c4nnn(CC)n4)ccc3c(=O)c2c1 ... false

* * *

biological target: Amine oxidase [flavin-containing] B (Rattus norvegicus, UniProt P19643); assay: Inhibitory activity against rat brain mitochondrial Monoamine oxidase B
pIC50: −log10 of the molar value.
property-label: pIC50

1) CCn1nnc(-c2ccc3c(=O)c4cc(O)ccc4oc3c2)n1 ... 7.00
2) COc1ccc2c(c1)C(=O)c1ccc(-c3nnc(C)o3)cc1S2(=O)=O ... 7.00
3) c1cc2c(cc1C1=NCCN1)Sc1cc(C3=NCCN3)ccc1O2 ... 5.00
4) CCCOc1ccc2sc3cc(-c4nnc(C)o4)ccc3c(=O)c2c1 ... 6.00
5) COc1ccc2c(c1)C(=O)c1ccc(-c3nnn(C)n3)cc1S2(=O)=O ... 7.22
6) c1ccc2c(c1)Oc1ccc(C3=NCCN3)cc1S2 ... 5.00

* * *

Biological target: Amine oxidase [flavin-containing] B (Rattus norvegicus, UniProt P19643)
Sequence (P19643 whole entry): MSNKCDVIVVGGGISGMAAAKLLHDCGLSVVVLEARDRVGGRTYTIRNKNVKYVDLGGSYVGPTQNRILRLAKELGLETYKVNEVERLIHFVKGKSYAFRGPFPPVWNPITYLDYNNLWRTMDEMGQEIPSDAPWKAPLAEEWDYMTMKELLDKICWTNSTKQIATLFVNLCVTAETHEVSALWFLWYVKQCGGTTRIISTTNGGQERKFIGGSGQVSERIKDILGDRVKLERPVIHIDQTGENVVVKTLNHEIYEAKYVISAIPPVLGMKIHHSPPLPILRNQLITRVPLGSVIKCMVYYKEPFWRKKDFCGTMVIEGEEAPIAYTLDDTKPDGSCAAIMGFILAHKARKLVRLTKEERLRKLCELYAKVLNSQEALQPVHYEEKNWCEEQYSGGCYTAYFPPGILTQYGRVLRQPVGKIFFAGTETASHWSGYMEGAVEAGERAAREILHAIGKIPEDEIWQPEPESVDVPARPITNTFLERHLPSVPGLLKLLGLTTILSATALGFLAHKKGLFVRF
Test: Inhibitory activity against rat brain mitochondrial Monoamine oxidase B at 0.1 uM
Recorded inhibition at 0.1 µM values for a group of compounds are listed next.
property-label: inhibition at 0.1 µM

1) Cn1nnnc1-c1ccc2c(c1)S(=O)(=O)c1ccccc1C2=O ... 1%
2) O=C1c2ccccc2S(=O)(=O)c2cc(-c3nnc(C(F)(F)F)o3)ccc21 ... 7%
3) CC(C)c1ccc2c(c1)C(=O)c1ccc(C3=NCCN3)cc1S2(=O)=O ... 0%
4) CCCOc1ccc2c(c1)C(=O)c1ccc(C3=NCCN3C(C)=O)cc1S2(=O)=O ... 20%
5) CC(C)c1ccc2c(c1)C(=O)c1ccc(-c3nnn(C)n3)cc1S2(=O)=O ... -30%

* * *

target: UniProt:P21396; assay: Inhibitory concentration against rat brain mitochondrial monoamine oxidase A
pIC50: −log10 of the molar value.
Listing of recorded pIC50 by entry.
property-label: pIC50

1. O=C1c2cc(F)ccc2S(=O)(=O)c2cc(C3=NCCN3)ccc21 ... 6.70
2. CCn1nnc(-c2ccc3c(=O)c4cc(O)ccc4oc3c2)n1 ... 5.70
3. C=CCNc1ccc2c(c1)C(=O)c1ccc(C3=NCCN3)cc1S2(=O)=O ... 8.05
4. CCNc1ccc2c(c1)C(=O)c1ccc(C3=NCCN3)cc1S2(=O)=O ... 8.00
5. O=C1c2cc(NCCO)ccc2S(=O)(=O)c2cc(C3=NCCN3)ccc21 ... 7.40
6. COc1ccc2c(c1)C(=O)c1ccc(C3=NCCN3)cc1S2(=O)=O ... 8.00

* * *

target: Amine oxidase [flavin-containing] A (Rattus norvegicus); experiment: Inhibitory activity against rat brain mitochondrial Monoamine oxidase A (Expt 2)
property-label: IC50 (nM)

1) CCCOc1ccc2c(c1)C(=O)c1ccc(C3=NCCN3)cc1S2(=O)=O ... 9

* * *

// reported inhibition at 1 µM for each item listed
target: Amine oxidase [flavin-containing] B (Rattus norvegicus, UniProt P19643); assay: Inhibitory activity against rat brain mitochondrial Monoamine oxidase B at 1 uM
property-label: inhibition at 1 µM

1. c1cc2c3c([nH]c2cc1C1=NCCN1)CCCC3 ... 9%
2. COc1nnc(-c2ccc3c(c2)S(=O)(=O)c2ccccc2C3=O)o1 ... 14%
3. Cn1nnc(-c2ccc3c(c2)S(=O)(=O)c2ccccc2C3=O)n1 ... 10%
4. O=c1c2ccccc2sc2cc(C3=NCCN3)ccc12 ... 14%
5. O=C1c2cc(C3=NCCN3)ccc2S(=O)(=O)c2cc(C3=NCCN3)ccc21 ... 3%
6. O=C1c2cc(F)ccc2S(=O)(=O)c2cc(C3=NCCN3)ccc21 ... 12%
7. [O-][S+]1c2ccccc2Sc2ccc(C3=NCCN3)cc21 (stereo unspecified) ... 14%
8. c1ccc2c(c1)Cc1cc(C3=NCCN3)ccc1-2 ... 11%
9. O=S1(=O)c2ccccc2Nc2cc(C3=NCCN3)ccc21 ... 12%
10. Cc1ccc(C)c2c1[nH]c1ccc(C3=NCCN3)cc12 ... 10%
11. O=C1c2ccccc2S(=O)(=O)c2cc(C3=NCCCN3)ccc21 ... 5%
